Test system: Vero E6
Procedure text: cell viability relative to DMSO; higher = less toxic
Particulars: 72 h; 1 nM
Readout kind: cell viability (%)
Unit % implied. Number only.

[
  {
    "Compound": "CN(C)c1ccccc1CN1CCCN(Cc2ccccc2N(C)C)C1c1ccncc1",
    "Unit symbol": "%",
    "Val": 97.7
  }
]

Reported cell viability for C=C(C)CN1CC[C@]23c4c5ccc(O)c4O[C@H]2c2[nH]c4ccccc4c2C[C@@]3(O)C1C5 [SDM25N] : what is it?
90.7

Reported cell viability for CC(=O)[C@H]1CC[C@H]2[C@@H]3CCC4=CC(=O)CC[C@]4(C)[C@H]3CC[C@]12C : what is it?
92

Reported cell viability for Cc1ncc[nH]1 : what is it?
96.2

Reported cell viability for CCN1CCN(Cc2ccc(-c3cc4c(N[C@H](C)c5ccccc5)ncnc4[nH]3)cc2)CC1 : what is it?
97.6

Reported cell viability for CCCC[P+](CCCC)(CCCC)Cc1ccc(NC(=O)[C@H](Cc2ccc3ccccc3c2)N/C(=N/C2CCCCC2)NC2CCCCC2)cc1 : what is it?
102

====

Tested on: Vero E6
Procedure text: drug sensitivity score (DSS) for viability; higher = more toxic; extreme values may be limits of the assay
Particulars: 72 h
Readout kind: drug sensitivity score
Please give the numeric answer without any surrounding text.

The examples below pair each entry with its known result.
[
  {
    "Molecule": "Cc1ccc2c(=O)c3ccccc3n(CCCN)c2c1C",
    "drug sensitivity score": 10.3
  },
  {
    "Molecule": "OCCN1CCN(CCCN2c3ccccc3Sc3ccc(Cl)cc32)CC1",
    "drug sensitivity score": 1.2
  },
  {
    "Molecule": "CNc1ncnc2c1ncn2[C@@H]1O[C@H](CO)[C@@H](O)[C@H]1O",
    "drug sensitivity score": 0
  },
  {
    "Molecule": "CN(C)CC(c1ccc(O)cc1)C1(O)CCCCC1 (stereo not drawn)",
    "drug sensitivity score": 0
  },
  {
    "Molecule": "Cc1c(CN(C)C(=O)/C=C/c2cnc3c(c2)CCC(=O)N3)oc2ccccc12",
    "drug sensitivity score": 0
  },
  {
    "Molecule": "COCCNC(=O)Cn1cnc([N+](=O)[O-])n1",
    "drug sensitivity score": 0
  }
]

Reported drug sensitivity score for COc1cccc([C@H](O)C2CCN(CCc3ccc(F)cc3)CC2)c1OC : what is it?
0

Reported drug sensitivity score for C=CC(=O)c1ccc2ccccc2c1 : what is it?
0

====

Test system: Calu-3
Procedure text: cell viability relative to DMSO; higher = less toxic
Particulars: 72 h; 100 nM
Readout kind: cell viability (%)
Unit % implied. Number only.

[
  {
    "Compound": "O=C1c2ccccc2C(=O)C1c1ccc(Br)cc1 [bromindione]",
    "Readout kind": "cell viability",
    "Val": 103
  }
]

Item COc1cc(C)nc(-n2nc(C)cc2OC)n1 [epirizole] with Calu-3 - cell viability?
88.3

Item Clc1ccccc1CN1CCc2sccc2C1 [ticlopidine] with Calu-3 - cell viability?
99.6

Item Cc1cc(O)c2c(c1)C(=O)c1cc(O)cc(O)c1C2=O [emodin] with Calu-3 - cell viability?
95

Item Clc1ccc([C@]23CNC[C@H]2C3)cc1Cl [amitifadine] with Calu-3 - cell viability?
101

Item NS(=O)(=O)c1cc2c(cc1C(F)(F)F)NC(Cc1ccccc1)NS2(=O)=O (stereo unspecified) [bendroflumethiazide] with Calu-3 - cell viability?
107
